Target: Phospholipid hydroperoxide glutathione peroxidase GPX4 (Homo sapiens) (UniProt P36969)
Sequence (P36969 whole entry, looked up): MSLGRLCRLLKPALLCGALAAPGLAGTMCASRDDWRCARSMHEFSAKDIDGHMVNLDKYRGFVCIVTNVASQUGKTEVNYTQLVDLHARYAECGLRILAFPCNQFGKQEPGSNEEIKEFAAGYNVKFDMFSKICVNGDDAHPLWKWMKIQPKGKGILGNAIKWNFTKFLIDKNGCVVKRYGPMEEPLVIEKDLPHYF
Experiment: Primary qHTS Assay for Inhibitors of Recombinant Selenoprotein Glutathione Peroxidase 4 (GPX4) (AID 1845192); also: nearly all actives have a fitted effect of over 65% in size
Conditions: recombinant GPX4, GR-coupled NADPH fluorescence, 15 min; series mostly up to 50 µM
Experimental: Assay Provider: Elias S.J. Arner MD PhD. Department of Medical Biochemistry and Biophysics Karolinska Institutet, Solna, Stockholm, Sweden […] 6; Detection; Fluorescence; ViewLux microplate reader, excitation 340 nm and emission 450 nm. […] 8; Detection; Fluorescence; ViewLux microplate reader, excitation 340 nm and emission 450 nm. […] 6. Initial fluorescence readout (t=0) at 340/450 nm was measured using a ViewLux multimodal detector (PerkinElmer, Waltham, MA). […]
Inconclusive results are not listed. The source made the active and inactive calls. Calls follow the shape of the dose curve; as a rule, active = well fitted inhibition curve with a large enough effect; inconclusive = small, poorly fitted or top-dose-only effect; inactive = flat fitted curve, though single readings scatter.
measurement_label: outcome

>>> recorded_result("CC1(C)CC[C@]2(C(=O)O[C@@H]3O[C@H](CO[C@@H]4O[C@H](CO)[C@@H](O)[C@H](O)[C@H]4O[C@@H]4O[C@H](CO)[C@@H](O)[C@H](O)[C@H]4O)[C@@H](O)[C@H](O[C@@H]4O[C@H](CO)[C@@H](O)[C@H](O)[C@H]4O)[C@H]3O)CC[C@]3(C)C(=CCC4[C@@]5(C)CC[C@@H](O)[C@@](C)(C(=O)O[C@@H]6O[C@H](CO)[C@@H](O)[C@H](O)[C@H]6O)C5CC[C@]43C)[C@@H]2C1 (stereo partly drawn)")
"inactive [at 9.73 µM]"
>>> recorded_result("C=CC(C)(O)CC/C=C(\\C)C(=O)OC1C(O)C(CO)OC(OC(=O)C23CCC(C)(C)CC2C2=CCC4C5(C)CCC(OC6OC(COC7OCC(OC(C)=O)C(O)C7OC7OC(COC(C)=O)C(O)C(O)C7O)C(O)C(O)C6O)C(C)(C)C5CCC4(C)C2(C)C(O)C3O)C1OC1OCC(OC2OCC(O)C(OC3OCC(O)C(O)C3O)C2O)C(O)C1O (stereo not drawn)")
"inactive [at 9.73 µM]"

###

test system: HaCat; experiment: Cytotoxic Profiling of Annotated Libraries Using Quantitative High-Throughput Screening (AID 1296008); conditions: Five cell lines viability, CellTiter-Glo ATP luminescence, 48-72 h; stronger effect = lower value; also: % is scaled to controls: 0 for no effect and ±100 for the full control effect; nearly all actives have a fitted effect of over 60% in size
Inconclusive results are not listed.
Record form. Attribute: max response. Fill in for each entry.
Give bare numbers, in %.

Some compounds with recorded max response:
>>> recorded_result("C=CC(C)(C)C12C=C(OC)C(=O)N3C(C(C)C)C(=O)NC31N(OC)c1ccccc12 (configuration not stated)")
-0.498
>>> recorded_result("CO[C@H]1/C=C\\O[C@@]2(C)Oc3c(C)c(O)c4c(O)c(c5c(nc6cc(C)ccn65)c4c3C2=O)NC(=O)/C(C)=C\\C=C/[C@H](C)[C@H](O)[C@@H](C)[C@@H](O)[C@@H](C)[C@H](OC(C)=O)[C@@H]1C")
-2.81
>>> recorded_result("NC1(C(=O)NC(CCO)c2ccc(Cl)cc2)CCN(c2ncnc3[nH]ccc23)CC1 (configuration not stated)")
-41.5
>>> recorded_result("CO[C@H]1C[C@@H]2CC[C@@H](C)[C@@](O)(O2)C(=O)C(=O)N2CCCC[C@H]2C(=O)O[C@H]([C@H](C)C[C@H]2CC[C@@H](OP(C)(C)=O)[C@H](OC)C2)CC(=O)[C@H](C)/C=C(\\C)[C@@H](O)[C@@H](OC)C(=O)[C@H](C)C[C@H](C)/C=C/C=C/C=C/1C")
-3.04
>>> recorded_result("Cc1nc2sc(C(=O)NCc3ccncc3)c(N)c2c(C)c1Cl")
0.272
>>> recorded_result("COc1ccccc1NC(=O)OCC1CCN(C(=O)OC(C)(C)C)CC1")
2.46

Okay, now this compound:
Suppose we examine the compound CC1(C)CC[C@]2(C(=O)O[C@@H]3O[C@H](CO)[C@@H](O)[C@H](O)[C@H]3O)CC[C@]3(C)C(=CCC4[C@@]5(C)C[C@@H](O)[C@H](O)C(C)(C)C5CC[C@]43C)C2[C@@H]1O (some centres not stated) ; what max response value has been reported? 2.98

###

system: Zika virus NS2B-NS3 protease (linked construct); experiment: Primary screen NINDS Rhodamine qHTS for Zika virus inhibitors (AID 1347160); conditions: purified NS2B-NS3 protease, Rhodamine110 substrate fluorescence; series mostly up to 57.1 µM; also: % is scaled to controls: 0 for no effect and ±100 for the full control effect; nearly all actives have a fitted effect of over 55% in size
Records with an inconclusive call do not appear. The source made the active and inactive calls. Calls follow the shape of the dose curve; as a rule, active = well fitted inhibition curve with a large enough effect; inconclusive = small, poorly fitted or top-dose-only effect; inactive = no such curve, though single readings can be large or run the other way.
measurement_label: activity change, negative = inhibition

Suppose we examine the compound CC(=O)O[C@@H]1[C@H](O[C@@H]2O[C@@H](CO)[C@H](O)[C@H]2O)[C@@H](O[C@@H]2O[C@@H](C)[C@H](O[C@@H]3OC[C@@H](O)[C@H](O)[C@H]3O)[C@@H](O)[C@H]2O)[C@H](OC(=O)[C@]23CCC(C)(C)C[C@H]2C2=CCC4[C@@]5(C)CC[C@H](O[C@@H]6O[C@H](C(=O)O)[C@@H](O)[C@H](O)[C@H]6O[C@@H]6O[C@H](CO)[C@H](O)[C@H](O)[C@H]6O)[C@@](C)(C=O)C5CC[C@@]4(C)[C@]2(C)CC3)O[C@@H]1C (stereo partly specified) ; what activity change, negative = inhibition value has been reported? -19.7% [at 10.7 µM] (inactive)

###

Record form. Attribute: max response. Fill in for each entry.
test system: HaCat; experiment: Cytotoxic Profiling of Annotated Libraries Using Quantitative High-Throughput Screening (AID 1296008); details: Five cell lines viability, CellTiter-Glo ATP luminescence, 48-72 h; stronger effect = lower value; also: % is scaled to controls: 0 for no effect and ±100 for the full control effect; nearly all actives have a fitted effect of over 60% in size
Results filed as inconclusive are left out.
One number for each entry, in %.

>>> recorded_result("OCCc1ccc(O[C@@H]2O[C@H](CO)[C@@H](O)[C@H](O)[C@H]2O)cc1")
-3.11

List the reported max response of each compound below.
1. CC/C=C\[C@H](O)[C@H](O)C1=C(C)C(=O)[C@]2(O1)C(=O)N[C@@](OC)(C(=O)c1ccccc1)[C@@H]2O
2. C[C@@H]1O[C@@H](O[C@@H]2[C@@H](O)[C@H](O[C@H]3[C@H](O[C@H]4CC[C@@]5(C)C(CC[C@]6(C)C5CC=C5[C@@H]7CC(C)(C)CC[C@]7(C(=O)O[C@@H]7O[C@H](CO)[C@@H](O)[C@H](O)[C@H]7O[C@@H]7O[C@@H](C)[C@H](O[C@@H]8O[C@@H](C)[C@H](O)[C@@H](O)[C@H]8O)[C@@H](O)[C@H]7O)CC[C@]56C)[C@@]4(C)CO)O[C@H](C(=O)O)[C@@H](O)[C@@H]3O)O[C@H](CO)[C@H]2O)[C@H](O)[C@H](O)[C@H]1O (some centres not stated)
3. CC1(C)CCC2(C(=O)OC3OCC(O)C(O)C3O)CCC3(C)C(=CCC4C5(C)CC(O)C(OC6OC(COC7OCC(O)C(O)C7O)C(O)C(O)C6O)C(C)(C)C5CCC43C)C2C1 (configuration not stated)
4. CC(CO)C1CCC2(C)CC3C(CO)CC(O)C3C(C)(O)C/C=C/12 (configuration not stated)
5. C=C(C)C1CCC2(C(=O)O)CCC3(C(=O)O)C(CCC4C5(C)CCC(O)C(C)(C(=O)O)C5CCC43C)C12 (configuration not stated)
6. C=C1CC[C@H]2[C@@](C)(CCC(O)[C@@]2(C)CO)[C@@H]1CCC1=CCOC1=O (some centres not stated)

[-9.21, 4.58, 2.92, -5.8, 3.2, -3.43]

List the reported max response of each compound below.
1. COc1cc(/C=C/CO)cc(OC)c1O[C@@H]1O[C@H](CO[C@@H]2O[C@H](CO)[C@@H](O)[C@H](O)[C@H]2O)[C@@H](O)[C@H](O)[C@H]1O
2. CC1(C)CCCC2(C)C(CO)C(CO)=CCC12 (configuration not stated)
3. C=C(CO)C12OC1C1(C)C(=CC2=O)C(O)C(O)CC1C (configuration not stated)

[4.69, 0.151, -9.32]

List the reported max response of each compound below.
1. CC[C@H]1OC(=O)[C@](C)(F)C(=O)[C@H](C)[C@@H](O[C@@H]2O[C@H](C)C[C@H](N(C)C)[C@H]2O)[C@](C)(OC)C[C@@H](C)C(=O)[C@@H](C)[C@H]2N(CCCCn3cc(-c4cccc(N)c4)nn3)C(=O)O[C@]12C
2. Cc1cnc(NC(=O)Nc2cc(Br)c(C)cc2OCC2CNCCO2)cn1 (configuration not stated)
3. COc1cc(/C=C/C(=O)O[C@H]2[C@H](O)[C@@H](CO)O[C@@]2(CO)O[C@H]2O[C@H](CO)[C@@H](O)[C@H](O)[C@H]2O)ccc1O
4. NC(=O)C(CCC(F)(F)F)N(Cc1ccc(-c2ncon2)cc1F)S(=O)(=O)c1ccc(Cl)cc1 (configuration not stated)
5. C=CC(C)(O)CC[C@H]1C(=C)CCC2[C@](C)(C(=O)O)CCC[C@@]21C (some centres not stated)
6. CC1=CC(=O)C2C(C)(C)CCC[C@]2(C)[C@H]1CO (some centres not stated)

[-5.51, -19, -4.81, -84.6, -5.99, -11.3]
